# System: IGROV1 ovarian
# Test details: NCI-60 one-dose screen, 48 h
# Measurement conditions: 10 µM
About 83,000 compounds went through this panel and 20% of them were active in at least one assay; those are over-represented in the sample as a whole. Activity calls are given as the source filed them. How the source made its calls: active means growth percent below 10; inactive means the rest.
Field 'call' accepts 1.0 for active, 0.0 for inactive

Worked set:
Compound | Discrete label
CC(=O)Nc1ccc(-n2cnc3cc(-c4ccc(O)cc4)ccc32)cc1F | 0.0
CSc1nc(-c2cccc(C)c2)c2cc(-c3ccccc3)n(C)c2n1 | 0.0
COc1ccc(-c2nc(-c3ccccc3)c(-c3ccccc3)n2-c2ccc(S(=O)(=O)Nc3ncccn3)cc2)cc1OC | 0.0
COc1cc(/C=C/C(=O)c2ccc(C(F)(F)F)cc2)ccc1Oc1nc(Nc2ccc(F)cc2)nc(N(C)C)n1 | 0.0
CC[C@@]1(O)C(=O)OCc2c1cc1n(c2=O)Cc2c-1nc1cc(F)c(C)c3c1c2[C@@H](N)CC3 | 1.0
COc1cc2c(cc1OC)CN(CCCCOc1cc(O)c3c(=O)cc(-c4ccccc4)oc3c1)CC2 | 0.0
CC1(c2ccccc2)NC(=O)N(CC(=O)Nc2ccc(C(=O)/C=C/c3ccccc3)cc2)C1=O (configuration not stated) | 0.0
[2H]C([2H])([2H])Oc1ccc2ncc(C#Cc3cncc(C(=O)Nc4ccc(CN5CCN(C)CC5)c(C(F)(F)F)c4)c3)n2n1 | 1.0

// query State the result this test recorded for O=C(/C=C/Nc1ccccc1)c1ccc2c(c1)Nc1ccccc1S2 .
// result 0.0

// query Could you please tell me the result logged for O=C(N/C(=C1/OCCN1Cc1ccccc1)[P+](c1ccccc1)(c1ccccc1)c1ccccc1)c1ccccc1 in this assay?
// result 1.0

// query Any idea what this test logged for COc1ccc(C(=O)/C=C/c2cc(F)cc(C(F)(F)F)c2)cc1S(N)(=O)=O ?
// result 1.0

// query Identify the outcome logged in this assay for the compound shown: Nc1nc(Nc2ccc(Cl)cc2)n(Cc2cccc(Br)c2)n1
// result 1.0

----------
# Tested on: HCT-15 colon
# Test details: NCI-60 one-dose screen, 48 h (100 = growth as untreated, 0 = no growth, -100 = all killed)
# Measurement conditions: 10 µM
About 83,000 compounds went through this panel and 20% of them were active in at least one assay; those are over-represented in the sample as a whole.
Attribute measured: growth (%)
Write down the numeric answer in % and omit the unit.

Molecule | Tested on | Result unit | growth
O=c1[nH]c2ccc(Cl)cc2cc1CSc1ccc(Nc2nccc(-c3ccc4ccccc4c3)n2)cc1 | HCT-15 colon | % | 12.6
COc1ccc(-c2nc(-c3ccccc3)c(-c3ccccc3)n2-c2ccc(S(=O)(=O)Nc3ncccn3)cc2)cc1OC | HCT-15 colon | % | 53.6
COc1cc(C2CC(c3ccccc3)=Nc3c(N)nc(N)nc3N2)ccc1Oc1nc(Nc2ccc(F)cc2)nc(N(C)C)n1 (stereo not given) | HCT-15 colon | % | 20.8
O=C(Cn1cc(CSc2nnc3oc4ccccc4n23)nn1)Nc1ccc(Br)cc1 | HCT-15 colon | % | 82.5
COc1ccc2[nH]c(=O)c(CSc3ccc(Nc4nccc(-c5ccc(Cl)cc5)n4)cc3)cc2c1 | HCT-15 colon | % | 97

// query # return recorded growth for entry CC1(c2ccccc2)NC(=O)N(CC(=O)Nc2ccc(C(=O)/C=C/c3ccc(Br)cc3)cc2)C1=O (stereo not given)
// result 19

// query Please supply the value of reported growth for the item CC(C)C(=O)Nc1ccc(C(=O)NC(=S)Nc2ccc(C(=O)O)cc2)cc1
// result 99.7

----------
# System: NCI-H522 lung
# Test details: NCI-60 one-dose screen, 48 h
# Measurement conditions: 10 µM
About 83,000 compounds went through this panel and 20% of them were active in at least one assay; those are over-represented in the sample as a whole. Active and inactive are the calls of the source. The calls were made as follows: active = growth percent below 10; inactive = the rest.
Just give me one of these, please: T for active, F for inactive

Compound | Discrete label
Cc1ccc(C(=O)NCCCNc2nc(Nc3ccc(N4CCN(C)CC4)cc3)nc3ccsc23)cc1 | F
Cc1ccc(-c2nc3ccc(C(=O)N=Nc4c(O)[nH]c5ccc(Cl)cc45)cc3[nH]2)cc1 | T
COc1ccc(-c2cc(C(=O)N=Nc3c(O)[nH]c4ccc(F)cc34)c3ccccc3n2)cc1 | F
[2H]C([2H])([2H])Oc1ccc2ncc(C#Cc3cncc(C(=O)Nc4ccc(CN5CCN(C)CC5)c(C(F)(F)F)c4)c3)n2n1 | T
COc1cc(NC(=O)c2cc(-c3ccc(F)cc3F)ccc2O)cc(OC)c1OC | T

// query // param item: O=C(CS(=O)(=O)c1oc(-c2ccc(Cl)cc2)nc1S(=O)(=O)c1ccccc1)N1CCCC1 ; yields the recorded call
// result T

----------
# Test system: BT-549 breast
# Test details: NCI-60 one-dose screen, 48 h (100 = growth as untreated, 0 = no growth, -100 = all killed)
# Measurement conditions: 10 µM
Compounds without any hit were thinned out: in the full panel of roughly 83,000, 20% have a hit.
Listed next: entries and their corresponding growth.
API: value field is a number in %; no unit string.

Compound | growth / %
N#Cc1c(NC(=O)c2ccc(C(F)(F)F)c(Cl)c2)sc2c1CCC(=O)C2 | -82.1
CC1=C(c2cc(-c3ccc(Cl)cc3)c(C#N)c(N)n2)C(c2ccccc2)NC(=S)N1 (stereo not given) | 42.1
CC(=O)Nc1ccc(-c2cn(-c3cccc(C(=O)Nc4ccc(F)c(C(F)(F)F)c4)c3)nn2)cn1 | 103
Cc1ccc(-c2cc(C(=O)N=Nc3c(O)[nH]c4ccc(Br)cc34)c3ccccc3n2)cc1 | 86.3
COc1cc(/C=C/C(=O)c2cc(OC)c(OC)c(OC)c2)ccc1Oc1nc(Nc2ccc(F)cc2)nc(N(C)C)n1 | -89.8

// query Name the recorded growth of the item O=c1nc(-c2ccccc2)cc(-c2cc3ccccc3nc2Cl)[nH]1 in your answer.
// result 12.9

// query Provide measured growth value, entry: COc1cc(-c2nc3cc(Cl)c(Cl)cc3[nH]2)ccc1OCc1nnc(-c2ccc(Br)cc2)o1
// result -73.4

// query State its growth for this compound: O=C(Nc1cccc(C(F)(F)F)c1)c1cncc(C#Cc2cnc3ccc(N4CCOCC4)nn23)c1
// result -37.5

// query Provide measured growth value, entry: Cn1c(O)c(N=Nc2nc(-c3cc4ccccc4oc3=O)cs2)c2cc(Br)ccc21
// result 59.6

// query Complete the entry with growth for CN(C)c1ccc(/C=C/C(=O)c2ccc(NC(=O)CN3C(=O)NC(C)(c4ccccc4)C3=O)cc2)cc1 (stereo not given)
// result 49.6

----------
# Tested on: OVCAR-3 ovarian
# Test details: NCI-60 one-dose screen, 48 h (100 = growth as untreated, 0 = no growth, -100 = all killed)
# Measurement conditions: 10 µM
The panel holds about 83,000 compounds, 20% with a hit somewhere; the sample as a whole holds those more often.
Measured growth values are reported for all entries that follow.
Report the figure in % without appending any unit label.

Observe how each entry below is paired with its result.
Compound | Result unit | Value
O=C1Nc2cc(-c3ccc(NC(=O)c4cccc([N+](=O)[O-])c4)cc3)ccc2/C1=C/c1ccc[nH]1 | % | 99.4
O=C(CNc1nc(-c2ccccc2)cs1)Nc1ccc([N+](=O)[O-])cc1 | % | 13.1
CC1=C2C(=C[C@@](C)(CO)[C@@H]2O)/C(=N\N)[C@](C)(O)C12CC2 | % | -24.4
COc1cc2oc(-c3cccc(C(=O)Nc4ccc(Cl)cc4)c3)cc(=O)c2c(OCCNC(=O)CNC(=O)OC(C)(C)C)c1OC | % | 98.3
COc1ccc([C@H]2C(C(=O)c3ccc(Cl)cc3)C3(N[C@@H]2c2ccccc2)C(=O)Nc2ccc(Br)cc23)cc1 (some centres not stated) | % | -30.8
Cc1ccc(/C(N)=N/c2sc(-c3ccccc3)nc2-c2ccccc2)cc1 | % | 84.7
O=C(c1ccc(O)cc1)C1[C@H](c2ccc(Br)cc2)[C@@H](c2ccccc2)NC12C(=O)Nc1ccc(Br)cc12 (some centres not stated) | % | -38.9
CSc1nc(-c2cccc(C)c2)c2cc(-c3ccccc3)n(C)c2n1 | % | -32.4
COC[C@@H](CC(C)C)N=C1NC(=O)/C(=C/c2ccc3ncoc3c2)N1 | % | -26.3
CC(=O)NCC1=C(C)C=C2C(=O)[C@](C)(O)C3(CC3)C(C)=C21 | % | -19.9

// query Quickly give me recorded growth for CN1C/C(=C\c2ccc(O)cc2O)c2[o+]c3cc(O)ccc3cc2C1
// result -8.86

// query Supply growth value. Item: COc1cc2c3c(n(CCCNC(C)C)c(=O)c2cc1OC)-c1nc2c(cc1C3=O)OCO2
// result -97.4

// query Input COc1ccc(Nc2nc(N)n(Cc3cccc(Br)c3)n2)cc1 , output reported growth.
// result 19.6

src = PubChem BioAssay (NCI)
